System: HL-60(TB) leukemia
Test: NCI tumour cell line growth inhibition, 48 h
Here the recorded TGI is given for each entry.
test-readout: TGI

[[record]]
compound = "CC1(C)C[C@H](O)[C@H](O)[C@]23C(=O)O[C@H](O)[C@H]2C(C=O)=CC[C@@H]13"
recorded_result = "> 100 µM"

[[record]]
compound = "COc1cc2c(cc1OC)C(Cc1ccccc1CCCl)=NCC2"
recorded_result = "97.2 µM"

[[record]]
compound = "CCOC(=O)C#Cc1ccc([N+](=O)[O-])cc1"
recorded_result = "4.1 µM"

[[record]]
compound = "COc1cc2ccnc3c2c(c1OC)CC1CC(O)C(OC)CC31 (stereo not given)"
recorded_result = "> 100 µM"

[[record]]
compound = "NC12CC3CC4C1CC1CC2C(C3)C4(N)C1"
recorded_result = "> 100 µM"

[[record]]
compound = "O=C(NC1CCN(Cc2ccccc2)CC1)c1cc(C(=O)NC2CCN(Cc3ccccc3)CC2)cc(C(=O)NC2CCN(Cc3ccccc3)CC2)c1"
recorded_result = "> 50 µM"

[[record]]
compound = "CC([C@H]1CCC2C3CCC4CC5(CC[C@]4(C)C3CC[C@@]21C)c1ccccc1C(=O)N5C)N(C)C (stereo not given in full)"
recorded_result = "46.3 µM"

[[record]]
compound = "C/C(=N\\O)c1cccc(Nc2nc3ccccc3c3occc23)c1"
recorded_result = "61.1 µM"

[[record]]
compound = "CSc1nc(O)c(/C=C2\\C=Nc3ccccc32)[nH]1"
recorded_result = "94.1 µM"

[[record]]
compound = "Cc1[nH]c2ccccc2c1C1CC(=O)NC1=O (stereo not given)"
recorded_result = "> 100 µM"


Value source: PubChem BioAssay (NCI)
